Assay: Quantitative highthroughput screen to assess conditional lethalithy of P12 Ichikawa cells grown in RPMI1640 with dialyzed fetal bovine serum (RPMI+ds) (AID 1963880); further: nearly all actives have a fitted effect of over 35% in size;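 on viability: 100% = DMSO wells and 0% = empty wells on each plate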
Conditions: ATP luminescence, 48 h; P12-Ichikawa viability; series mostly up to 45.8 µM
Records with an inconclusive call do not appear. The source made the active and inactive calls. The call rests on the fitted dose curve; in most records, active means well fitted cell-killing curve with a large enough effect; inconclusive means small, poorly fitted or top-dose-only effect; inactive means flat fitted curve, though single readings scatter.
Entry note: the call must match one of label 1 (active), label 0 (inactive)

Hi team, can someone confirm the assay call for "Cc1[nH]nc2ccc(-c3cncc(OC[C@@H](N)Cc4c[nH]c5ccccc45)c3)cc12" ?
label 1

Kindly provide the recorded test outcome for the following compound: "O=C(NCC1CCOCC1)c1cnc(Nc2ccc(Cl)cc2Cl)nc1C(F)(F)F"
label 0

Outcome logged for "CC1=C(O)C(=O)C=C2C1=CC=C1[C@@]2(C)CC[C@@]2(C)[C@@H]3C[C@](C)(C(=O)O)CC[C@]3(C)CC[C@]12C" in this assay:
label 1

For "c1cc2c(cc1[C@H]1OC[C@H]3[C@H]1CO[C@H]3c1ccc3c(c1)OCO3)OCO2" , what call appears in the results of this test?
label 0

Please let me know the test result on file for "CC=C(C)C(=O)O[C@H]1C(C)=C2[C@@H]3OC(=O)[C@@](C)(O)[C@@]3(O)[C@@H](OC(=O)CCC)C[C@](C)(OC(C)=O)[C@@H]2[C@@H]1OC(=O)CCCCCCC" .
label 1

Any idea what this test logged for "O=C1C=CC[C@@H]2[C@H]3CCCN4CCC[C@@H](CN12)[C@@H]34" ?
label 0

Each compound tested received a call. Report the one for "COc1cccc2c1[C@]13CCN(CC4CC4)[C@H](C2)[C@]1(OC)CCC(=O)C3" .
label 0

Fill in: this test's call for O=P1(NCCCl)OCCCN1CCCl (stereo not given) is ___
label 0

# fetch the recorded call for "O=C(Oc1ccc([N+](=O)[O-])cc1)N1CCC(C(O)(c2ccc3c(c2)OCO3)c2ccc3c(c2)OCO3)CC1" here
label 0

Returns: the outcome recorded for "CC(C)(O)C(=O)Nc1ccc([N+](=O)[O-])c(C(F)(F)F)c1" in this assay.
label 1

Could you check what this test reported for COc1ccc2c(c1OC)CN1CCc3cc4c(cc3C1C2)OCO4 (stereo not given) ?
label 1

What call does the record list for "CC(=Cc1csc(C)n1)[C@@H]1C[C@H]2O[C@]2(C)CCC[C@H](C)[C@@H](O)[C@@H](C)C(=O)C(C)(C)[C@@H](O)CC(=O)O1" ?
label 0

Could you kindly confirm the outcome this assay logged for "CC(=O)Nc1ccc(OC[C@](C)(O)C(=O)Nc2ccc([N+](=O)[O-])c(C(F)(F)F)c2)cc1" ?
label 0

What did the test return for "NCC1(CC(=O)O)CCCCC1" ?
label 0

Just curious, what result did "CC(=O)OCC1=C(C(=O)O)N2C(=O)[C@@H](N)[C@@H]2SC1" get here?
label 1

Returns: the outcome recorded for "O=S(=O)(F)Cc1ccccc1" in this assay.
label 0

Please indicate how the test categorized CC(N[C@H]1C[C@H]1c1ccccc1)c1ccc2c(c1)OCCO2 (stereo not given in full) .
label 0

Which result was noted for this compound in the test: "Cc1ccccc1-n1c(Cn2ncc3c(N)ncnc32)nc2cccc(C)c2c1=O"
label 1

Record lookup: outcome of this test for "Cc1sc2c(c1C)C(c1ccc(Cl)cc1)=N[C@@H](CC(=O)OC(C)(C)C)c1nnc(C)n1-2" ?
label 1

For "C[C@@H]1CC[C@H]2[C@@H](C)C(=O)O[C@@H]3O[C@@]4(C)CC[C@H]1[C@]32OO4" , which call appears in the assay record?
label 0

Recorded call for "CC[C@@H]1[C@@H](C)O[C@@](O)([C@@H](C)[C@H](O)[C@H](C)[C@H]2OC(=O)C=CC=C[C@@H](C)[C@@H]([C@@H](C)[C@@H](O)[C@H](C)[C@@]3(O)C[C@H](O[C@H]4C[C@H](O)[C@H](O)[C@H](C)O4)[C@H](CC)[C@@H](C)O3)OC(=O)C=CC=C[C@@H]2C)C[C@H]1O[C@H]1C[C@H](O)[C@H](O)[C@H](C)O1" ?
label 1

Which result was noted for this compound in the test: CC(=CCCC1=CCC(C2=CC(=O)OC2O)OC1O)CCC1=C(C)CCCC1(C)C (stereo not given)
label 0

In this assay, the call recorded for "C[C@]12CC[C@H]3[C@@H](CCC4=CC(=O)CC[C@@]43C)[C@H]1CC[C@H]2OC(=O)CCC1CCCC1" was what?
label 0

Hello, I am checking results. What call was entered for "C[C@@H]1O[C@@H](O[C@@H]2C=C3CC[C@@H]4[C@@H](CC[C@]5(C)[C@H](c6ccc(=O)oc6)CC[C@@]45O)[C@@]3(C)CC2)[C@H](O)[C@H](O)[C@H]1O" ?
label 1

Record request — test call for "Cc1nc(-c2ccc(-c3ccc(C(=O)N4CCc5cc6c(cc54)C4(CCN(C)CC4)CO6)cc3)c(C)c2)no1"
label 0

Please let me know the test result on file for "C#CCN(C)[C@H](C)Cc1ccccc1" .
label 0

Tell me the assay call for "O=C(O)c1nn(Cc2ccc(Cl)cc2Cl)c2ccccc12" please.
label 0

Would you mind telling me which call this test gave "C[C@]12CC[C@H]3[C@@H](CCC4=CC(=O)CC[C@@]43C)[C@H]1CC[C@H]2O" ?
label 0

What is the recorded call for this compound in the test? "O=C(O)C(=O)c1cn(Cc2ccccc2)c2ccc(-c3ccc(OC(F)(F)F)cc3)cc12"
label 0

What is the recorded call for this compound in the test? "CN(C)[C@@H]1C(=O)C(C(N)=O)=C(O)[C@@]2(O)C(=O)C3=C(O)c4c(O)cccc4[C@@](C)(O)[C@H]3C[C@@H]12"
label 0

Give the logged outcome of this assay for the following compound: "CCN1C[C@]2(OC(=O)c3ccccc3NC(C)=O)CC[C@H](OC)[C@@]34[C@H]5CC6[C@@H](OC)C[C@](O)(C(C[C@@H]23)[C@@H]14)[C@@]5(O)[C@@H]6OC"
label 0

Can you look up the reported call for "CC(O)=C(C#N)C(=O)Nc1cc(Br)ccc1Br" for me?
label 0

How did this test come out for "O=C1CCC[C@@H]2[C@H]3CCCN4CCC[C@@H](CN12)[C@@H]34" ?
label 0

For "COc1cc2cc(c1Cl)N(C)C(=O)C[C@H](OC(=O)C(C)C)[C@]1(C)O[C@H]1[C@H](C)[C@@H]1C[C@@](O)(NC(=O)O1)[C@H](OC)C=CC=C(C)C2" , which call appears in the assay record?
label 0

What was the test verdict on "COc1ccc(C(=O)c2c(C)n(CCN3CCOCC3)c3cc(I)ccc23)cc1" ?
label 1

These data points were gathered from PubChem BioAssay (NCATS).
